System: PC9
Protocol details: YAP/TAZ reporter activity score (signed KS statistic vs DMSO) (signed KS statistic (-1 to 1)); higher = stronger activation of the pathway reporter relative to DMSO
Condition label: 0.5 µM; time after treatment 48 h; PC9 signalome
Readout type: YAP/TAZ reporter activity score

Smiles	Reported
CC(C)CC(=O)Nc1n[nH]c2c1CN(C(=O)C1CCN(C)CC1)C2(C)C	0.244
Nc1ncnc2c1c(-c1cnc3[nH]ccc3c1)nn2C1CCCC1	0.258
O=C(Nc1cc(C(F)(F)F)cc(C(F)(F)F)c1)c1cc(Cl)ccc1O	0.257
COc1ncc(-c2ccc3nccc(-c4ccnnc4)c3c2)cc1NS(=O)(=O)c1ccc(F)cc1F	0.18
CCn1c(-c2nonc2N)nc2c(C#CC(C)(C)O)ncc(OC[C@H]3CCCNC3)c21	-0.0459
Cc1[nH]nc2ccc(-c3cncc(OC[C@@H](N)Cc4ccccc4)c3)cc12	-0.247
CO[C@H]1C[C@@H]2CC[C@@H](C)[C@@](O)(O2)C(=O)C(=O)N2CCCC[C@H]2C(=O)O[C@H]([C@H](C)C[C@@H]2CC[C@@H](OP(C)(C)=O)[C@H](OC)C2)CC(=O)[C@H](C)/C=C(\C)[C@@H](O)[C@@H](OC)C(=O)[C@H](C)C[C@H](C)/C=C/C=C/C=C/1C	0.142
CN1CCN(c2nc(C3=C(c4c[nH]c5ccccc45)C(=O)NC3=O)c3ccccc3n2)CC1	-0.0765

###

Test system: PC9
Protocol details: AKT reporter activity score (signed KS statistic vs DMSO) (signed KS statistic (-1 to 1)); higher = stronger activation of the pathway reporter relative to DMSO
Condition label: 0.5 µM; time after treatment 48 h; PC9 signalome
// reported AKT reporter activity score per item

Smiles	AKT reporter activity score
Cc1[nH]nc2ccc(-c3cncc(OC[C@@H](N)Cc4ccccc4)c3)cc12	-0.173
C[C@@H](Oc1cc(-n2cnc3ccc(CN4CCN(C)CC4)cc32)sc1C(N)=O)c1ccccc1C(F)(F)F	-0.183
CC(C)n1nc(-c2cc3cc(O)ccc3[nH]2)c2c(N)ncnc21	-0.0564

###

// reported WNT reporter activity score per item
System: PC9
Protocol details: WNT reporter activity score (signed KS statistic vs DMSO) (signed KS statistic (-1 to 1)); higher = stronger activation of the pathway reporter relative to DMSO
Condition label: 0.5 µM; time after treatment 48 h; PC9 signalome
Readout type: WNT reporter activity score

Compound	Readout type	Reported
CCn1c(-c2nonc2N)nc2c(C#CC(C)(C)O)ncc(OC[C@H]3CCCNC3)c21	WNT reporter activity score	0.151
CC(C)n1nc(-c2cc3cc(O)ccc3[nH]2)c2c(N)ncnc21	WNT reporter activity score	0.0845
CCN1CCN(Cc2ccc(Nc3ncc(F)c(-c4cc(F)c5nc(C)n(C(C)C)c5c4)n3)nc2)CC1	WNT reporter activity score	0.767
C#CCC(Cc1cnc2nc(N)nc(N)c2n1)c1ccc(C(=O)N[C@@H](CCC(=O)O)C(=O)O)cc1 (stereo partly specified) [Pralatrexate(Folotyn)]	WNT reporter activity score	0.0527
CC(C)n1nc(-c2ccc3oc(N)nc3c2)c2c(N)ncnc21	WNT reporter activity score	0.164
CN(C)C/C=C/C(=O)Nc1cc2c(Nc3ccc(F)c(Cl)c3)ncnc2cc1O[C@H]1CCOC1	WNT reporter activity score	0.34
COc1cc2ncnc(Nc3ccc(F)c(Cl)c3)c2cc1NC(=O)/C=C/CN1CCCCC1	WNT reporter activity score	0.343
O=C(NCCCNc1nc(Nc2cccc(NC(=O)N3CCCC3)c2)ncc1I)c1cccs1	WNT reporter activity score	-0.101
C[C@@H](Oc1cc(-n2cnc3ccc(CN4CCN(C)CC4)cc32)sc1C(N)=O)c1ccccc1C(F)(F)F	WNT reporter activity score	0.141
CO[C@H]1C[C@@H]2CC[C@@H](C)[C@@](O)(O2)C(=O)C(=O)N2CCCC[C@H]2C(=O)O[C@H]([C@H](C)C[C@@H]2CC[C@@H](O)[C@H](OC)C2)CC(=O)[C@H](C)/C=C(\C)[C@@H](O)[C@@H](OC)C(=O)[C@H](C)C[C@H](C)/C=C/C=C/C=C/1C [Rapamycin (Sirolimus)]	WNT reporter activity score	0.0535
C=CC(=O)N1CCC[C@@H](n2nc(-c3ccc(Oc4ccccc4)cc3)c3c(N)ncnc32)C1	WNT reporter activity score	0.283
